- testSystem: human recombinant PLK4 (Homo sapiens (Human), UniProt O00444)
- Sequence (O00444 whole entry): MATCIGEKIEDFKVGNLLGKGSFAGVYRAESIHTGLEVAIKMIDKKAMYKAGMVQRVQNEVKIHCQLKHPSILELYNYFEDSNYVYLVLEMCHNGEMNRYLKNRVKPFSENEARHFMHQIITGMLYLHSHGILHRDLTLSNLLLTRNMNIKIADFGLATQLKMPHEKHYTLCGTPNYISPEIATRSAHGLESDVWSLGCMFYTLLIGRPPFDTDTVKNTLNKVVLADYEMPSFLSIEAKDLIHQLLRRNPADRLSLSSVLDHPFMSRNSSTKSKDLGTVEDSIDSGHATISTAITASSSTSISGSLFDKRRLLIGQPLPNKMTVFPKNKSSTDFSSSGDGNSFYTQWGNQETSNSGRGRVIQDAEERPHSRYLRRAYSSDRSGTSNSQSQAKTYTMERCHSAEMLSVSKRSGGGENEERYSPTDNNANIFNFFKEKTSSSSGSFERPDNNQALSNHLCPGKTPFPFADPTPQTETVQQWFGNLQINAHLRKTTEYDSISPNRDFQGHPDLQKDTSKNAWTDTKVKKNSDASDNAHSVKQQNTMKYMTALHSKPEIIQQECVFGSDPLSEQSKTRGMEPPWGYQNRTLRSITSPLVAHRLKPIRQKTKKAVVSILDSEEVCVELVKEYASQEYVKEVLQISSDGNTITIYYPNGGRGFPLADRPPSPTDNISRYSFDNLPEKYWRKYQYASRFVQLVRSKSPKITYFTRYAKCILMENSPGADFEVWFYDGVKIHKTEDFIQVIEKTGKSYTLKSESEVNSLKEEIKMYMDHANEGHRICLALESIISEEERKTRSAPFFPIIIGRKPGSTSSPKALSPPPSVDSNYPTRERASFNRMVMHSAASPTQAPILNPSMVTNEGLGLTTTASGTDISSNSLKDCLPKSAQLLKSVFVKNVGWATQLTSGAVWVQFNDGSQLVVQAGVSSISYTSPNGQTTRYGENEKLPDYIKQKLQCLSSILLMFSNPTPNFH
- testName: PLK4 Biochemical Assay (ADP-Glo)
- assaySetup: 0.5 nM PLK4, 8.0 µM ATP, 4.7 µM MBP, 6 hours at RT
pIC50 values for the compounds below.
The scale used: pIC50 is minus the common logarithm of the concentration in molar units.

// below: answered compounds
COc1ccc2c(c1)[C@]1(C[C@H]1c1ccc3c(Nc4nc(Cl)nc5ccn(C)c45)n[nH]c3c1)C(=O)N2 [Example 171]
8.23
COc1ccc2c(c1)[C@]1(C[C@H]1c1ccc3c(Nc4nc(C)ncc4Cl)n[nH]c3c1)C(=O)N2 [Example 98]
8.12
COc1ccc2c(c1)[C@]1(C[C@H]1c1ccc3c(Nc4ncc(N5CCOCC5)nc4OC)n[nH]c3c1)C(=O)N2 [Example 94]
8.25

As a next step, examine the compound that follows.
stdin: Return the recorded pIC50 value; entry: COc1cnc(C)nc1Nc1n[nH]c2c(F)c([C@@H]3C[C@@]34C(=O)Nc3ccc(F)cc34)ccc12 [Example 142]
stdout: 7.67
